testedTarget: OfChi-h (Ostrinia furnacalis, UniProt Q4AE59)
Construct: made in house; host or cells: Pichia pastoris GS115
Sequence (Q4AE59 18-553): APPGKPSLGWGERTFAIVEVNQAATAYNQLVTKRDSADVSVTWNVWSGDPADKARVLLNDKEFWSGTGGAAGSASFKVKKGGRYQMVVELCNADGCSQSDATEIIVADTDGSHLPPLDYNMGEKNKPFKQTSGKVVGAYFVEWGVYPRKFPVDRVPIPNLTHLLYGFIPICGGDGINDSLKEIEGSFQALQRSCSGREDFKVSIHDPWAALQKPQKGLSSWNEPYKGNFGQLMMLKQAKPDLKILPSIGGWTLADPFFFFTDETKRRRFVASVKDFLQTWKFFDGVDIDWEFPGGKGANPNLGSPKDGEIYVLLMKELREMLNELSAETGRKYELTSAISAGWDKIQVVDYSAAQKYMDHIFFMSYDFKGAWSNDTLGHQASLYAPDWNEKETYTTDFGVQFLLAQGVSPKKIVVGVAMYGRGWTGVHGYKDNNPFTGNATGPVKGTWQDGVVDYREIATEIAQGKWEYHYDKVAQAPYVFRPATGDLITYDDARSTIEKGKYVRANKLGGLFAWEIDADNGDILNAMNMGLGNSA
testProtocol: Chitinase inhibition assay and Ki determination (MU-β-(GlcNAc)2 substrate, Dixon plot), OfChi-h
Assay type: biochemical
assayContext: Dixon plot, substrate 2–8 μM
testReadout: pKi
Hey, just a heads up that pKi is the negative log base 10 of the concentration in molar.

compound="Cc1cccn2c(=O)c3cc4c(=O)n(Cc5ccco5)cnc4nc3nc12 [6k]" testedtarget="OfChi-h (Ostrinia furnacalis, UniProt Q4AE59)" testreadout=pKi reportedvalue=5.82

# query: pKi of entry COc1cc(Cn2cnc3nc4nc5c(C)cccn5c(=O)c4cc3c2=O)cc(OC)c1OC [6e]
7.19

Then this compound: Cc1cccn2c(=O)c3cc4c(=O)n(C(C)c5cccnc5)cnc4nc3nc12 (centres unmarked) [6b]
6.67

Then this compound: Cc1cccn2c(=O)c3cc4c(=O)n(Cc5cccnc5)cnc4nc3nc12 [6a]
7.24

Then this compound: Cc1cccn2c(=O)c3cc4c(=O)n(Cc5cnccn5)cnc4nc3nc12 [6c]
6.53

----------
testedTarget: OfChi-h (Ostrinia furnacalis, UniProt Q4AE59)
Construct: made in house; host or cells: Pichia pastoris GS115
testProtocol: Chitinase inhibition assay and Ki determination (MU-β-(GlcNAc)2 substrate, Dixon plot), OfChi-h
Format: biochemical
assayContext: 10 μM inhibitor, 10 nM enzyme, 4 μM MU-β-(GlcNAc)2, pH 6.0, 30 °C, 20 min
Reported inhibition at 10 µM is given for each of the following molecules.
Write the quantity with the unit trailing the number.

Some molecules with known inhibition at 10 µM results, for comparison:
molecule=Cc1cccn2c(=O)c3cc4c(=O)n(CCc5c[nH]c6ccccc56)cnc4nc3nc12 reportedvalue=49.6%
molecule=Cc1cccn2c(=O)c3cc4c(=O)n(Cc5cnccn5)cnc4nc3nc12 reportedvalue=95.3%
molecule=COc1cc(Cn2cnc3nc4nc5c(C)cccn5c(=O)c4cc3c2=O)cc(OC)c1OC reportedvalue=96.2%
molecule=Cc1cccn2c(=O)c3cc4c(=O)n(Cc5ccc(Cl)c(F)c5)cnc4nc3nc12 reportedvalue=42.9%
molecule=COc1ccc(Cn2cnc3nc4nc5c(C)cccn5c(=O)c4cc3c2=O)cc1OC reportedvalue=69.3%
molecule="Cc1cccn2c(=O)c3cc4c(=O)n(C(C)c5cccnc5)cnc4nc3nc12 (stereo not shown)" reportedvalue=96.8%

Shifting focus to the molecule that follows.
# query: inhibition at 10 µM of entry Cc1cccn2c(=O)c3cc4c(=O)n(Cc5ccccc5)cnc4nc3nc12
72.5%

----------
testedTarget: SmChiA (Serratia marcescens)
Construct: made in house; host or cells: Escherichia coli BL21(DE3)
Sequence (P07254 24-563): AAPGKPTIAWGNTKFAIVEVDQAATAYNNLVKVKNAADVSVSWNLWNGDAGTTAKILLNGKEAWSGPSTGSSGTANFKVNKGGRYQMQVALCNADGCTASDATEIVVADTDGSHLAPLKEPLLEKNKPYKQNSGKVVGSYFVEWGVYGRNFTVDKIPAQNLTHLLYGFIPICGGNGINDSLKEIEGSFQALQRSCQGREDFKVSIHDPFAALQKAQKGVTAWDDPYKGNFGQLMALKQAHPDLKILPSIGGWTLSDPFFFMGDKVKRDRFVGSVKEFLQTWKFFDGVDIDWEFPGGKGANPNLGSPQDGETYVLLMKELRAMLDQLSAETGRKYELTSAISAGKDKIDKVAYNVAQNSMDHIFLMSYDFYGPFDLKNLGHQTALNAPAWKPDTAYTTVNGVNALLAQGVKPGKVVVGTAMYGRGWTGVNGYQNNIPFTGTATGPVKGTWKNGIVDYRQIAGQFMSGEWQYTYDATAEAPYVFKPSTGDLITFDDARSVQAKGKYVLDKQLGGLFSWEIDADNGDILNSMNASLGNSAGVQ
testProtocol: Chitinase inhibition assay and Ki determination (MU-β-(GlcNAc)2 substrate, Dixon plot), SmChiA
Assay type: biochemical
assayContext: 10 μM inhibitor, 10 nM enzyme, 4 μM MU-β-(GlcNAc)2, pH 6.0, 30 °C, 20 min
Experimental: SmChiA was expressed in Escherichia coli BL21(DE3), HsChit1 and OfChi-h were overexpressed in Pichia pastoris GS115. […] The expressed proteins were quantified using a BCA protein assay kit (TaKaRa Biotech, China). And their purities were determined by SDS-PAGE and found to be >95% in all cases. Chitinase activities for SmChiA, HsChit1 and OfChi-h were determined using 4-methylumbelliferyl-N, N′-diacetyl-β-D-chitobioside (MU-β-(GlcNAc)2) (purchased from Sigma) as a substrate. […]
testReadout: inhibition at 10 µM (%)
State just the number; it will be interpreted in %.

# query: inhibition at 10 µM of entry Cc1cccn2c(=O)c3cc4c(=O)n(Cc5ccc(Cl)c(F)c5)cnc4nc3nc12 [6i]
31.7

Then this molecule: Cc1cccn2c(=O)c3cc4c(=O)n(Cc5ccco5)cnc4nc3nc12 [6k]
47.5

Then this molecule: C#CCn1cnc2nc3nc4c(C)cccn4c(=O)c3cc2c1=O [6l]
37.5

Then this molecule: Cc1cccn2c(=O)c3cc4c(=O)n(C(C)c5cccnc5)cnc4nc3nc12 (stereo not drawn) [6b]
88.7

----------
testedTarget: OfChi-h (Ostrinia furnacalis, UniProt Q4AE59)
Construct: made in house; host or cells: Pichia pastoris GS115
testProtocol: Chitinase inhibition assay and Ki determination (MU-β-(GlcNAc)2 substrate, Dixon plot), OfChi-h
Assay type: biochemical
assayContext: 10 μM inhibitor, 10 nM enzyme, 4 μM MU-β-(GlcNAc)2, pH 6.0, 30 °C, 20 min
Reported inhibition at 10 µM is given for each of the following compounds.
State just the number; it will be interpreted in %.

Some compounds with known inhibition at 10 µM results, for comparison:
chemicalstring=COc1ccc(Cn2cnc3nc4nc5c(C)cccn5c(=O)c4cc3c2=O)cc1 testedtarget="OfChi-h (Ostrinia furnacalis, UniProt Q4AE59)" testreadout="inhibition at 10 µM" unitofmeasure=% reportedvalue=74
chemicalstring=Cc1cccn2c(=O)c3cc4c(=O)n(Cc5cccnc5)cnc4nc3nc12 testedtarget="OfChi-h (Ostrinia furnacalis, UniProt Q4AE59)" testreadout="inhibition at 10 µM" unitofmeasure=% reportedvalue=99.3

# query: inhibition at 10 µM of entry C#CCn1cnc2nc3nc4c(C)cccn4c(=O)c3cc2c1=O
81

Then this compound: Cc1cccn2c(=O)c3cc4c(=O)n(Cc5ccco5)cnc4nc3nc12
86.8

Then this compound: Cc1cccn2c(=O)c3cc4c(=O)n(Cc5cccc(N)c5)cnc4nc3nc12
89

----------
testedTarget: SmChiA (Serratia marcescens)
Reported pKi is given for each of the following compounds.
Hey, just a heads up that pKi is the negative log base 10 of the concentration in molar.

compound="Cc1cccn2c(=O)c3cc4c(=O)n(Cc5cccnc5)cnc4nc3nc12 [6a]" testedtarget="SmChiA (Serratia marcescens)" testreadout=pKi reportedvalue=6.90

Shifting focus to the compound that follows.
# query: pKi of entry Cc1cccn2c(=O)c3cc(C(=O)NCc4cccnc4)c(N)nc3nc12 [5a, reference compound]
5.21

----------
testedTarget: OfChi-h (Ostrinia furnacalis, UniProt Q4AE59)
Construct: made in house; host or cells: Pichia pastoris GS115
testProtocol: Chitinase inhibition assay and Ki determination (MU-β-(GlcNAc)2 substrate, Dixon plot), OfChi-h
Type: biochemical
assayContext: Dixon plot, substrate 2–8 μM
testReadout: pKi
Hey, just a heads up that pKi is the negative log base 10 of the concentration in molar.

compound="C#CCn1cnc2nc3nc4c(C)cccn4c(=O)c3cc2c1=O [6l]" reportedvalue=5.87
compound="Cc1cccn2c(=O)c3cc4c(=O)n(Cc5cccc(N)c5)cnc4nc3nc12 [6h]" reportedvalue=6.56

# query: pKi of entry Cc1cccn2c(=O)c3cc4c(=O)n(Cc5ccc(Cl)c(F)c5)cnc4nc3nc12 [6i]
5.54

Then this compound: COc1ccc(Cn2cnc3nc4nc5c(C)cccn5c(=O)c4cc3c2=O)cc1OC [6f]
6.13

Then this compound: Cc1cccn2c(=O)c3cc4c(=O)n(Cc5ccccc5)cnc4nc3nc12 [6d]
5.85

Then this compound: COc1ccc(Cn2cnc3nc4nc5c(C)cccn5c(=O)c4cc3c2=O)cc1 [6g]
5.99

----------
testedTarget: HsChit1 (Homo sapiens)
Sequence (Q13231 22-466): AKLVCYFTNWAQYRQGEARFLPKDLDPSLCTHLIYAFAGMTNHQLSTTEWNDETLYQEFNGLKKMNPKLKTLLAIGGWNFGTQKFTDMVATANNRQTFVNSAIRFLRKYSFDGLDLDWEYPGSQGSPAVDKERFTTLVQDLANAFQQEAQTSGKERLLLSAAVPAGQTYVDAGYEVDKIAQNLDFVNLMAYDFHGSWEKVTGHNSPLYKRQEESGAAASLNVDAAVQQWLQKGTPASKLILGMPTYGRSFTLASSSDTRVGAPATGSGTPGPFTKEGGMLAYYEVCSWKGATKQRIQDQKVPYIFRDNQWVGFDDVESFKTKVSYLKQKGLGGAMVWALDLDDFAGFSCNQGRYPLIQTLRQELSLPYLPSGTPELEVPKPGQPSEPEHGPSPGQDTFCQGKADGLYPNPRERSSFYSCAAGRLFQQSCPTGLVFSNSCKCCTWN
testReadout: pKi
Hey, just a heads up that pKi is the negative log base 10 of the concentration in molar.

# query: pKi of entry Cc1cccn2c(=O)c3cc4c(=O)n(Cc5cccnc5)cnc4nc3nc12
6.53

----------
Reported inhibition at 10 µM is given for each of the following compounds.
testedTarget: SmChiA (Serratia marcescens)
Construct: made in house; host or cells: Escherichia coli BL21(DE3)
testProtocol: Chitinase inhibition assay and Ki determination (MU-β-(GlcNAc)2 substrate, Dixon plot), SmChiA
Type: biochemical
assayContext: 10 μM inhibitor, 10 nM enzyme, 4 μM MU-β-(GlcNAc)2, pH 6.0, 30 °C, 20 min
State just the number; it will be interpreted in %.

Some compounds with known inhibition at 10 µM results, for comparison:
chemicalstring=Cc1cccn2c(=O)c3cc4c(=O)n(Cc5cccnc5)cnc4nc3nc12 unitofmeasure=% reportedvalue=98.5
chemicalstring=COc1ccc(Cn2cnc3nc4nc5c(C)cccn5c(=O)c4cc3c2=O)cc1 unitofmeasure=% reportedvalue=30.3
chemicalstring=Cc1cccn2c(=O)c3cc4c(=O)n(CCc5c[nH]c6ccccc56)cnc4nc3nc12 unitofmeasure=% reportedvalue=42.4

Report inhibition at 10 µM for Cc1cccn2c(=O)c3cc4c(=O)n(Cc5cccc(N)c5)cnc4nc3nc12 tested on SmChiA (Serratia marcescens).
37.9

Then this compound: COc1ccc(Cn2cnc3nc4nc5c(C)cccn5c(=O)c4cc3c2=O)cc1OC
34.2

Then this compound: Cc1cccn2c(=O)c3cc4c(=O)n(Cc5ccccc5)cnc4nc3nc12
32

Then this compound: COc1cc(Cn2cnc3nc4nc5c(C)cccn5c(=O)c4cc3c2=O)cc(OC)c1OC
28.2

Then this compound: Cc1cccn2c(=O)c3cc4c(=O)n(Cc5cnccn5)cnc4nc3nc12
91.5

Attribution: paper PMC12239106
